Biological target: Recombinant human renin (Homo sapiens)
Sequence (P00797 67-406): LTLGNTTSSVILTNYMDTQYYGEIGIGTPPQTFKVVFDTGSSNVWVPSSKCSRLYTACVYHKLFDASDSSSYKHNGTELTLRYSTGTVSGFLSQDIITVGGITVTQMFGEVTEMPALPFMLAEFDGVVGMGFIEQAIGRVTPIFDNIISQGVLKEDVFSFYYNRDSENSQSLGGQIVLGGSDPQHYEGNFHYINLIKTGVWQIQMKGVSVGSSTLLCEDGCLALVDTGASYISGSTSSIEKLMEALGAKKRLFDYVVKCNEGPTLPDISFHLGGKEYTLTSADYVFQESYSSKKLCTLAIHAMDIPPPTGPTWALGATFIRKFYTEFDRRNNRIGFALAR
Test: Inhibitory activity against human renin (fluorogenic peptide substrate)
Format: biochemical
Conditions: 50% inhibitory concentration (IC50) against human renin, 37° C. for 1 hour
Property: IC50; scope: individual compounds
Your answer is read as nM, so omit the unit and give the number.

Noted IC50 for COC(=O)NCCCc1cc([C@@H](C)N(C(=O)[C@H]2CNCCO2)C2CC2)sc1-c1ncccc1C , tested on Recombinant human renin (Homo sapiens): 0.2

Others:
Noted IC50 for COc1ccc2nc([C@@H](C)N(C(=O)[C@H]3CNCCO3)C3CC3)cc(CCCNC=O)c2c1 , tested on Recombinant human renin (Homo sapiens): 3.4

Noted IC50 for COC(=O)NCCCn1nc([C@@H](C)N(C(=O)[C@H]2CNCCO2)C2CC2)cc1-c1ccc(F)cc1 , tested on Recombinant human renin (Homo sapiens): 0.3

Noted IC50 for COCCCCn1cc([C@@H](C)N(C(=O)[C@H]2CNCCO2)C2CC2)nc1-c1ccccc1 , tested on Recombinant human renin (Homo sapiens): 0.8

Noted IC50 for COC(=O)NCCCn1nc([C@@H](C)N(C(=O)[C@H]2CNCCO2)C2CC2)cc1-c1ccc(C)nc1 , tested on Recombinant human renin (Homo sapiens): 0.6

Noted IC50 for COc1cccc(Cn2cc([C@@H](C)N(C(=O)[C@H]3CNCCO3)C3CC3)nc2-c2ccccc2)c1 , tested on Recombinant human renin (Homo sapiens): 3.6

Noted IC50 for COC[C@H]1CO[C@@H](C(=O)N(C2CC2)[C@H](C)c2cn(CCCNC(=O)OC)c3ncccc23)CN1 , tested on Recombinant human renin (Homo sapiens): 1.5

Noted IC50 for COC(=O)NCCCc1cc([C@@H](C)N(C(=O)[C@H]2CNCCO2)C2CC2)nn1-c1ccccc1OC , tested on Recombinant human renin (Homo sapiens): 0.7

Noted IC50 for COC(=O)NCCCc1cc([C@@H](C)N(C(=O)[C@H]2CNCCO2)C2CC2)cc(C(F)(F)F)n1 , tested on Recombinant human renin (Homo sapiens): 0.7

Noted IC50 for COC(=O)NCCCn1cc([C@@H](C)N(C(=O)[C@H]2CN[C@@H](C)CO2)C2CC2)nc1-c1ccccc1 , tested on Recombinant human renin (Homo sapiens): 0.4

Noted IC50 for COC(=O)NCCCc1sc([C@@H](C)N(C(=O)[C@H]2CNCCO2)C2CC2)cc1-c1ccccc1C(=O)OC , tested on Recombinant human renin (Homo sapiens): 2

Noted IC50 for CCc1cc([C@@H](C)N(C(=O)[C@H]2CNCCO2)C2CC2)nc2ccccc12 , tested on Recombinant human renin (Homo sapiens): 4.6

Noted IC50 for COC(=O)NCCCc1cc([C@@H](C)N(C(=O)[C@H]2CNCCO2)C2CC2)sc1-c1ccccc1F , tested on Recombinant human renin (Homo sapiens): 0.5

Noted IC50 for COC(=O)NCCCc1cc([C@@H](C)N(C(=O)[C@H]2CNC[C@@H](C)O2)C2CC2)nn1-c1ccc(F)cc1 , tested on Recombinant human renin (Homo sapiens): 0.4

Noted IC50 for COC(=O)NCCCc1cc([C@@H](C)N(C(=O)[C@H]2CNCCO2)C2CC2)sc1-c1cncnc1 , tested on Recombinant human renin (Homo sapiens): 0.8

Noted IC50 for COC(=O)NCCCc1cc([C@@H](C)N(C(=O)[C@H]2CNCCO2)C2CC2)nc2ccc(C#N)cc12 , tested on Recombinant human renin (Homo sapiens): 1

Noted IC50 for C[C@H](c1cn(Cc2ccccc2)c(-c2ccccc2)n1)N(C(=O)[C@H]1CNCCO1)C1CC1 , tested on Recombinant human renin (Homo sapiens): 3
